Would you mind telling me the reported pIC50 of each entry?
# System: Phosphorylation of ERK1/2 in MIA PaCa-2 cells
# protocol: Phospho-ERK1/2 MSD Assay
# Assay type: cell-based
# experimental conditions: 2 h compound treatment, EGF stimulation 10 ng/mL, 10 min, read-out: p-ERK IC50 (2 h)
Give bare numbers, as −log10 of the molar value.

Data request: So what's the measured pIC50 for this one? C=CC(=O)N1CCN(c2c(C#N)c(=O)n(-c3c(C)ccnc3C(C)C)c3nc(-c4ccccc4F)c(Cl)cc23)CC1 [Example 6]
Data returned: 6.77

Data request: So what's the measured pIC50 for this one? C=CC(=O)N1CCN(c2c(C#N)c(=O)n(-c3c(C(C)C)ccnc3C(C)C)c3nc(-c4ccccc4C)c(Cl)cc23)CC1 (single isomer, unassigned)
Data returned: 6.85

Data request: So what's the measured pIC50 for this one? C=CC(=O)N1CCN(c2c(C#N)c(=O)n(-c3c(C(C)C)ccnc3N(C)C)c3nc(-c4ccccc4F)c(Cl)cc23)CC1 (single isomer, unassigned) [Example 8.4]
Data returned: 6.62

Data request: So what's the measured pIC50 for this one? C=CC(=O)N1CCN(c2c(C#N)c(=O)n(-c3c(C(C)C)ccnc3N(C)C)c3nc(-c4ccccc4F)c(Cl)cc23)CC1 (single isomer, unassigned) [Example 8.8]
Data returned: 7.30

Data request: So what's the measured pIC50 for this one? C=CC(=O)N1CCN(c2c(C#N)c(=O)n(-c3c(C)ccnc3C(C)C)c3nc(-c4ccccc4F)c(Cl)cc23)CC1 [Example 6.5]
Data returned: 7.22

---
Data request: So what's the measured pIC50 for this one? C=CC(=O)N1CCN(c2c(C#N)c(=O)n(-c3c(C(C)C)ccnc3C(C)C)c3nc(-c4ccccc4F)c(Cl)cc23)CC1 (single isomer, unassigned)
Data returned: 6.80
